All values here come from patent US20240084042A1.

Recorded Kd for the following binders
# Tested target: T1, human KLK5 (human, UniProt Q9Y337 67-293)
# T1 construct: also called huKLK5; KLK5 AMC
# T1 sequence: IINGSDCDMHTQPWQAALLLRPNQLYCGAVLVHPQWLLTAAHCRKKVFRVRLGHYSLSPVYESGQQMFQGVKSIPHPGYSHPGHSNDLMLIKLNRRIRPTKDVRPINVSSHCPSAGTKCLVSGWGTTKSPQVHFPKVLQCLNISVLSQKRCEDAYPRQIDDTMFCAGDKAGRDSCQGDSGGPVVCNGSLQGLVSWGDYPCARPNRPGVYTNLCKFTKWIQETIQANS
# Measurement notes: SPR, one-armed monovalent antibody
Reported property: Kd (nM)

binder="OA.hu.9H5.H14L4.G98Q.H89V.S95Y (antibody, V domains shown, One-armed (OA) monovalent anti-KLK5 antibody with a human IgG1 Fc, with Q38E/Q39K; constant regions and dummy Fc chain not specified) VH: EVQLVESGGGLIQPGGSLRLSCAASGFSLSSYGVSWVRKAPGKGLEYVGFIGSGGFAYYASWAKSRFTISRDNSKNTLYLQMNSLRAEDTAVYYCARDDVQGGKSLDIWGQGTLVTVSS VL: DIQMTQSPSSLSASVGDRVTITCQASQSISSYLSWYQEKPGKAPKLLIYSASTLASGVPSRFSGSGSGTDFTLTISSLQPEDFATYYCVQDYTSYNVDNTFGGGTKVEIK" scale_unit=nM recorded_result=0.0199
binder="OA.hu.9H5.H14L4 (antibody, V domains shown, One-armed (OA) monovalent anti-KLK5 antibody with a human IgG1 Fc, with Q38E/Q39K; constant regions and dummy Fc chain not specified) VH: EVQLVESGGGLIQPGGSLRLSCAASGFSLSSYGVSWVRKAPGKGLEYVGFIGSGGFAYYASWAKSRFTISRDNSKNTLYLQMNSLRAEDTAVYYCARDDVGGGKSLDIWGQGTLVTVSS VL: DIQMTQSPSSLSASVGDRVTITCQASQSISSYLSWYQEKPGKAPKLLIYSASTLASGVPSRFSGSGSGTDFTLTISSLQPEDFATYYCHQDYTSSNVDNTFGGGTKVEIK" scale_unit=nM recorded_result=0.254
binder="OA.hu.9H5.H14L4.G98Q.H89V (antibody, V domains shown, One-armed (OA) monovalent anti-KLK5 antibody with a human IgG1 Fc, with Q38E/Q39K; constant regions and dummy Fc chain not specified) VH: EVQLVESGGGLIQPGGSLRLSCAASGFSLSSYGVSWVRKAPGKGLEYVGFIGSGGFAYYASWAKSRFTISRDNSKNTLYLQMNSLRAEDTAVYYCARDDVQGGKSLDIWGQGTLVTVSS VL: DIQMTQSPSSLSASVGDRVTITCQASQSISSYLSWYQEKPGKAPKLLIYSASTLASGVPSRFSGSGSGTDFTLTISSLQPEDFATYYCVQDYTSSNVDNTFGGGTKVEIK" scale_unit=nM recorded_result=0.0186
binder="OA.hu.9H5.H14L4.G54A.H89V (antibody, V domains shown, One-armed (OA) monovalent anti-KLK5 antibody with a human IgG1 Fc, with Q38E/Q39K; constant regions and dummy Fc chain not specified) VH: EVQLVESGGGLIQPGGSLRLSCAASGFSLSSYGVSWVRKAPGKGLEYVGFIGSAGFAYYASWAKSRFTISRDNSKNTLYLQMNSLRAEDTAVYYCARDDVGGGKSLDIWGQGTLVTVSS VL: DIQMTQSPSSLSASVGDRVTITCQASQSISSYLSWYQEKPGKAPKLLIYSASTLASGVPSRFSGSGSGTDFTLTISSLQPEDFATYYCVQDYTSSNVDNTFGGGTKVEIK" scale_unit=nM recorded_result=0.0102
binder="OA.hu.9H5.H14L4.G54A.S95Y (antibody, V domains shown, One-armed (OA) monovalent anti-KLK5 antibody with a human IgG1 Fc, with Q38E/Q39K; constant regions and dummy Fc chain not specified) VH: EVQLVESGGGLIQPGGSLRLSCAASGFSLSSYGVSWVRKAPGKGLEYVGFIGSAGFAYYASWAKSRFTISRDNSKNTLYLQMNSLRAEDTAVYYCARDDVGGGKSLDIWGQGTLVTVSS VL: DIQMTQSPSSLSASVGDRVTITCQASQSISSYLSWYQEKPGKAPKLLIYSASTLASGVPSRFSGSGSGTDFTLTISSLQPEDFATYYCHQDYTSYNVDNTFGGGTKVEIK" scale_unit=nM recorded_result=0.0162
